# Tested on: hT40, dGA, dGAE and truncated tau fragments
# ASSAY PROTOCOL: Binding ELISA / epitope mapping of anti-tau scAbs with truncated tau proteins and 13mer peptides
# Design: species or system human
# TEST CONDITIONS: residue numbers of SEQ ID NO: 1 (hT40); CDR Tables 1-11
# Description: A series of binding ELISA was performed using various truncated versions of the tau protein and 13mer peptide libraries spanning the entire hT40 molecule for mapping the epitopes of anti-tau scAbs (Full list of protein antigens used is given in Table 14). […] Binding was detected using anti-Human C Kappa HRP conjugated secondary antibody and the resulting immunoreaction was developed and absorbance values measured as described above. […]

MOLECULE: S1D12: sheep-derived anti-tau core clone; scFv SEQ ID NO: 32, VH 443, VL 444 (protein, S1D12 amino acid sequence) scFv: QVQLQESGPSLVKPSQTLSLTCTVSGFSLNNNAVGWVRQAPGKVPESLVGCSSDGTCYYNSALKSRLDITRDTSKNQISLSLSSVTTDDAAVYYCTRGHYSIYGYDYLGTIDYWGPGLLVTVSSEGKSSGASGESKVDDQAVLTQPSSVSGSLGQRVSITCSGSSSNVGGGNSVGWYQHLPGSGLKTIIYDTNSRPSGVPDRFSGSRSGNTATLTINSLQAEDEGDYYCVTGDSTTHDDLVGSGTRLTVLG
Epitope: 337-355
